Origin of measurements: PubChem BioAssay AID1779

Entries annotated with measured inhibition
target: Tyrosine-protein phosphatase non-receptor type 22 (Homo sapiens) (UniProt Q9Y2R2); experiment: PTPN22 lymphoid phosphatase activity blockers – biochemical, fluorescence intensity, uHTS (AID 1779); conditions: recombinant LYP phosphatase, at 11.5 µM, active compounds read high;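 further: plate controls were vehicle with enzyme for no effect and no enzyme for full effect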
Sequence (Q9Y2R2 whole entry, looked up): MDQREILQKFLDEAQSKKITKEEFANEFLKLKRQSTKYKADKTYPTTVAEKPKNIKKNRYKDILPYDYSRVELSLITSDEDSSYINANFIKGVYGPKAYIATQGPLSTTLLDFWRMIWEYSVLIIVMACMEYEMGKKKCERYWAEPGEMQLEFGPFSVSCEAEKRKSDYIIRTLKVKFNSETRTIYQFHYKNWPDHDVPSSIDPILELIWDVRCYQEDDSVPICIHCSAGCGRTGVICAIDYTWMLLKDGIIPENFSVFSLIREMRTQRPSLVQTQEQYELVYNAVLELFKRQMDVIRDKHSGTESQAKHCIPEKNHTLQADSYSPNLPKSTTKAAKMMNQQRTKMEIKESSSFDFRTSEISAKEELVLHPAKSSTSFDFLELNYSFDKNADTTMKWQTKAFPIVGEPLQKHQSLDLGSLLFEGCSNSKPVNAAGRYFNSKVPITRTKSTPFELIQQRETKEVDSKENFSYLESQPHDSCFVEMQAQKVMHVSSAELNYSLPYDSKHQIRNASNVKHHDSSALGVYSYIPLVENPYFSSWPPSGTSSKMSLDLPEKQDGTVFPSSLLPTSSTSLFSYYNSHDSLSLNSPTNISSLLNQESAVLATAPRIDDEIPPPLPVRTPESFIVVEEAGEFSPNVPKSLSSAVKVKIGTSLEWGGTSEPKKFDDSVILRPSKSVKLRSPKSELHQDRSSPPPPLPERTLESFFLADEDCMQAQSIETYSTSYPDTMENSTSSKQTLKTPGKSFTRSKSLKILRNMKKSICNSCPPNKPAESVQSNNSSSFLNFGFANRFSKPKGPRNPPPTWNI
Hit rate of the full screen: of about 290,000 compounds, about 160 (0.055%) were called active. Many of the other results were omitted from the sample, so actives are more common in it than they were.
Write the answer as a number in %, unit excluded.

Observe how each entry below is paired with its result.
O=C(O)C1CCC(N2C(=O)c3cccc([N+](=O)[O-])c3C2=O)CC1 (configuration not stated) ... -7.1
O=C1CC(N2CCN(c3cccc(C(F)(F)F)c3)CC2)C(=O)N1c1ccc(F)cc1 (configuration not stated) ... 4.8
O=C(O)C1CC=CCC1C(=O)Nc1ccc(F)c(F)c1 (configuration not stated) ... 6.1
CC(C)=NOCc1ccc(-c2cn([C@@H]3COC[C@H]3O)nn2)cc1 ... -2.9
C[C@H](NC(=O)Nc1cccc(C(F)(F)F)c1)C(=O)O ... -5.3

Please examine the following record next.
Task item: Notebook entry, Tyrosine-protein phosphatase non-receptor type 22 (Homo sapiens) (UniProt Q9Y2R2) assay: inhibition of O=C(CN1C(=O)c2ccccc2C1=O)N1CCN=C1c1ccccc1 = ?
Reply: -8.9
